target: CD28 (human) (UniProt P10747); experiment: flow cytometry, Expi293F cells transfected with CD28
experimental_readout: parental ratio
Number only, no unit.

INPUT: Supply parental ratio value. Item: CD80 E24G/R29D/Y31L/Q33H/K36G/M38I/T41A/M43R/M47T/F59L/E81V/L85R/K89N/A91T/F92P/K93V/R94L/H96R/N149S/C182S ECD-Fc (Fc fusion) VIHVTKEVKEVATLSCGHNVSVEGLAQTDILWHKEGKIVLAMRSGDTNIWPEYKNRTILDITNNLSIVILALRPSDEGTYVCVVRKYENDTPVLERLAEVTLSVKADFPTPSISDFEIPTSNIRRIICSTSGGFPEPHLSWLENGEELSAINTTVSQDPETELYAVSSKLDFNMTTNHSFMSLIKYGHLRVNQTFNWNTTKQEHFPDN
OUTPUT: 0.08
